Ref: PubChem BioAssay AID598

- Test Protocol: proliferation blockers of H69AR lung cancer cells, primary screen, cell-based, human, 86K library (AID 598);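 note: multidrug resistant small cell line overexpressing MRP-1 efflux transporter; 100% = mean luminescence of untreated control wells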
- Conditions: H69AR lung tumor viability, ATP luminescence, 72 h; at 10 µM; stronger effect = lower value
Out of some 85,000 compounds screened, about 5,100 (6%) were called active. Shown is part of a subset that was picked to be rich in actives.
Readings of viability for the listed compounds
// units = %; emit number, no label

Some entries whose results are on file:
stdin: What value of viability has been recorded for this entry: COc1ccc(CN(CC(=O)NC2CCCC2)C(=O)CCC(=O)Nc2cc(C)on2)cc1
stdout: 96.3

stdin: Param item: CCC(O)CNc1nc(-n2nc(C)cc2C)nc2sc3c(c12)CC(C)(C)OC3 (stereo not given)
stdout: 44.6

stdin: And for OC(COc1ccc2c(c1)CCC2)CN1CCN(c2cccc(Cl)c2)CC1 (stereo not given) ?
stdout: 75

stdin: Try this compound next: Cc1cc(C)n(-c2nc(SCC(=O)N3CCCC3)c3c4c(sc3n2)CCCC4)n1
stdout: 57.6

Then there is this compound:
stdin: Query: viability; subject: O=C(CSCc1ccccc1)N1CCc2ccccc21
stdout: 84.8

* * *

- Test Protocol: proliferation blockers of H69AR lung cancer cells, primary screen, cell-based, human, 86K library (AID 598);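 note: multidrug resistant small cell line overexpressing MRP-1 efflux transporter; 100% = mean luminescence of untreated control wells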
- Conditions: H69AR lung tumor viability, ATP luminescence, 72 h; at 10 µM; stronger effect = lower value
Out of some 85,000 compounds screened, about 5,100 (6%) were called active. The full list was thinned out, with actives kept by preference.
Measured viability values are reported for all entries that follow.
Provide only the numeric value, understood in %.

Recorded results for 10 compounds are shown here.
stdin: Any idea what its viability is? The compound is COc1ccc(/C(O)=C2\C(=O)C(=O)N(Cc3ccco3)C2c2ccc(OC)cc2OC)cc1 (configuration not stated)
stdout: 97.1

stdin: COC(=O)Nc1ncc(CN2CCCCC2)s1 ?
stdout: 92.5

stdin: Queued: Cc1cc(C)n(C(=O)CCNC(=O)c2ccccc2Cl)n1
stdout: 104

stdin: And the next one, CCOc1cccc(-n2nnnc2-c2ccc(OC)cc2)c1 ?
stdout: 15.2

stdin: Query CC1(C)COC(c2cccn2Cc2ccccc2Cl)=N1 next
stdout: 104

stdin: Item: Cc1nc2ccccc2n1C(=O)N1CCOCC1
stdout: 82.5

stdin: Now consider CN1CCN(CCCNC(=O)c2cc3c(=O)oc4ccccc4c3s2)CC1 and answer again.
stdout: 87.3

stdin: Try this compound next: COc1ccc([N+](=O)[O-])cc1C1NN=C(c2cccc3ccccc23)S1 (configuration not stated)
stdout: 27.1

stdin: What do you get for Clc1ccc(Nc2nc(-c3cccs3)cs2)nc1 ?
stdout: 31.8

stdin: Likewise for CCOC(=O)C1=C(CN2CCc3ccccc32)NC(=O)NC1c1ccc(Cl)cc1 (configuration not stated) ?
stdout: 48.1

***
stdin: Return reported viability; argument: Cc1cccc(N(CC(=O)N2CCOCC2)S(C)(=O)=O)c1
stdout: 98

stdin: Same thing, different compound: CCOc1cc(NC(=O)c2cnccn2)c(OCC)cc1NC(=O)c1ccc(C)cc1
stdout: 110

stdin: Item: CCCCCN1CC(O)=C(c2ccccc2)C1=N
stdout: 88.7

stdin: // next record COc1ccc(-c2nnc(SCC(=O)c3ccc4c(c3)OCCO4)o2)cc1
stdout: 102

stdin: Follow-up entry: O=C(NCCN1CCN(Cc2ccccc2)CC1)c1cc2c(=O)[nH]c3ccccc3c2s1
stdout: 1.91

stdin: # repeat for O=C(Nc1ccc2c(c1)OCCO2)C(c1ccc(F)cc1)N1CCCCC1 (configuration not stated)
stdout: 99.9

stdin: Let us now turn to Cc1ccc(Nc2cc(=O)n(C3CCCCC3)c(=O)[nH]2)cc1C
stdout: 9.54

stdin: Now the compound O=C1c2ccccc2C(=O)N1CCCc1nc(-c2ccccc2)no1
stdout: 95.5

stdin: Another compound to look at: CCOc1cccc(-c2nnc3sc(COc4ccc(OC)cc4)nn23)c1
stdout: 51.3

stdin: # repeat for Cc1ccc(Nc2nnc(SCc3ccccc3)s2)cc1
stdout: 98.2

stdin: Now this one: CCOc1ccccc1NC(=O)Nc1cc(OC)ccc1OC
stdout: 93.8

stdin: Moving on to the next compound: CCOC(=O)C1=C(CN2CCc3ccccc32)NC(=O)NC1c1cccc([N+](=O)[O-])c1 (configuration not stated)
stdout: 16.4

stdin: Next entry: COc1ccc(-c2nnc(SC(C)C#N)o2)cc1 (configuration not stated)
stdout: 86.7

stdin: How about COc1ccc(NC(=O)CSc2nc(NS(=O)(=O)c3ccc(C)cc3)cc(=O)[nH]2)cc1 ?
stdout: 109

stdin: Quick one: Cc1ccoc1C(=O)Nc1cccc(Oc2ccccc2)c1
stdout: 112

stdin: Next up: CCN(CC)Cc1cc(C(C)=O)ccc1O
stdout: 98.5

* * *

- Test Protocol: proliferation blockers of H69AR lung cancer cells, primary screen, cell-based, human, 86K library (AID 598);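 note: multidrug resistant small cell line overexpressing MRP-1 efflux transporter; 100% = mean luminescence of untreated control wells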
- Conditions: H69AR lung tumor viability, ATP luminescence, 72 h; at 10 µM
About 5,100 (6%) of roughly 85,000 compounds were called active.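 How the source made its calls: active means viability at or below 40%; inactive means viability above 40%.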 This is one part of a sample in which actives are shown more often than they occur.
Pick one: active, inactive

stdin: Write down the call the test reported for this compound. Item: Cc1cc(C)c2c(c1)cc(C)c1nnc(SCC(=O)Nc3cc(C)on3)n12
stdout: active

stdin: How about CC1(C)CC(=O)C=C(N2CCCC2)C1 ?
stdout: inactive

stdin: And for Cc1cccc(N2C(=O)c3cccnc3C2=O)c1 ?
stdout: inactive

stdin: Next record, please: O=C(NCCOc1ccccc1)c1ccccc1
stdout: inactive

stdin: Same read-out for COc1ccc(C2SCCN2S(=O)(=O)c2ccccc2)cc1OC (centres undefined) ?
stdout: inactive

stdin: Now consider CC(C)n1c(-c2cccs2)nc2ccccc21 and answer again.
stdout: inactive

stdin: Cool, now O=c1c2ccccc2nnn1CSc1nnnn1-c1ccccc1
stdout: inactive

stdin: Moving on to CCOc1ccc2[nH]c(=O)c(CN(Cc3nnnn3Cc3ccccc3)CC3CCCO3)cc2c1 (centres undefined)
stdout: active

stdin: Same again, this time with CCOc1cc(/C=N/O)cc(Br)c1OC
stdout: inactive

stdin: Now the compound COc1ccc(-n2nnnc2SCC(=O)Nc2ccccc2)cc1
stdout: inactive

Continuing:
stdin: Hi team, can someone confirm the assay call for COc1ccc(C2CC(=O)n3c(nc4ccccc43)S2)cc1OC (centres undefined) ?
stdout: inactive

stdin: O=C(NCc1ccccc1)C1CCCN(S(=O)(=O)c2cccs2)C1 (centres undefined) ?
stdout: inactive

stdin: For Cn1c(=O)c2c(SCC(=O)N3CCOCC3)nc(C3CC3)nc2n(C)c1=O then?
stdout: inactive

stdin: Another compound to check: Brc1ccc(-c2nnc(-c3ccccc3)o2)o1
stdout: inactive

stdin: # iterate: O=C(CCN1CCc2ccccc2C(O)(c2ccccc2)C1)c1ccc2c(c1)OCCO2 (centres undefined)
stdout: active

stdin: // same read-out, input: N#CCSc1nc2ccccc2c(=O)n1-c1ccccc1
stdout: inactive

stdin: Same read-out for CCCCNC(=O)CSc1nccn1Cc1ccccc1 ?
stdout: inactive

stdin: Also O=C(Nc1ccc(-c2nnc(-c3ccccc3)o2)cc1)C1CCCO1 (centres undefined) ?
stdout: inactive

* * *

- Test Protocol: proliferation blockers of H69AR lung cancer cells, primary screen, cell-based, human, 86K library (AID 598);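 note: multidrug resistant small cell line overexpressing MRP-1 efflux transporter; 100% = mean luminescence of untreated control wells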
- Conditions: H69AR lung tumor viability, ATP luminescence, 72 h; at 10 µM; stronger effect = lower value
Screen size: about 85,000 compounds; about 5,100 (6%) were called active. The entries come from a sample that favours actives as a whole.
Measurement Type: viability (%)
Give the value, in units of %, as a plain number.

For orientation, consider the following solved cases.
stdin: # lookup: viability of CCOc1ccc(N(CC(=O)OC)S(=O)(=O)c2c(C)noc2C)cc1
stdout: 96.6

stdin: Param item: CCOc1ccc2c(c1)C(c1ccc(C)cc1)=NNC(c1ccc(C)cc1)=N2
stdout: 21

stdin: Please give the result for C/C(=C\C(=O)c1cccnc1)Nc1ccc(C)c(C)c1 too.
stdout: 93.1

***
stdin: Dear colleague, I am looking for the recorded viability of the following molecule: CCNS(=O)(=O)c1ccc(NC(=O)Nc2cccc(OC)c2)cc1
stdout: 82.3

stdin: Next molecule: O=C(/C=C/c1ccc(Cl)cc1Cl)c1cccnc1
stdout: 0.85

stdin: Next up: COc1ccccc1NS(=O)(=O)N(C)C
stdout: 104

stdin: Item: COc1ccccc1NC(=O)/C=C/C(N)=O
stdout: 2.11

stdin: Another molecule to look at: CCOCCOCCC(C(=O)O)P(=O)(c1ccccc1)c1ccccc1 (configuration not stated)
stdout: 103

stdin: Can you handle O=C(NCc1ccc(Cl)c(Cl)c1)c1cccnc1 next?
stdout: 94.2

stdin: Try the molecule N#CC1=C(N)N(c2ccccc2)C2=C(C(=O)CCC2)C1c1ccccc1 (configuration not stated)
stdout: 40.4

stdin: CCOC(=O)c1cccc(NC(=O)CN(c2ccc(C)cc2)S(=O)(=O)c2c(C)noc2C)c1 ?
stdout: 24

stdin: Check COc1ccc(/C=C/C(=O)Nc2c(C)nn(C)c2C)cc1COc1ccc(Br)cc1 too.
stdout: 57.5
